Data origin: patent US20250009801A1

Listed here are binders together with their documented kon.
Biological target: T1, human Claudin18.2-His (Acro, CL2-H5546) (human, UniProt P56856-2 1-261)
T1 construct: Bought reagent, amine-coupled to a CM5 chip; also called recombinant human CLDN18.2 protein; not shown: His tag
Experiment: SPR (Biacore T200), Claudin18.2-His coupled on CM5 chip, antibody in the mobile phase (avidity)
Output spec: scalar in M⁻¹ s⁻¹, unitless text.

Consider the worked cases shown below.
Hz3G3 PG Ab (antibody, human IgG1, kappa, V domains shown, also called G3 PG antibody; G3 antibody) VH: QVQLVQSGAEVKKPGASVKVSCKASGYSFTTYWMHWVRQAPGQGLEWMGLIDPSDSETRLNQKFKDRVTMTVDTSTSTVYMELSSLRSEDTAVYYCASNRWLLGWGQGTLVTVSS VL: DIVMTQSPDSLAVSLGERATINCKSSQSLLNSGNQKNYLTWYQQKPGQPPKLLIYWASTRESGVPDRFSGSGSGTDFTLTISSLQAEDVAVYYCQNDYSYPLTFGQGTKLEIKR	709000
Hz69H9-SA PG Ab (antibody, human IgG1, kappa, V domains shown, Mutant of the parent Hz69H9 with point mutations in VH or VL; also called H9-SA PG antibody) VH: QVQLVQSGAEVKKPGSSVKVSCKASGYSFSSYNISWVRQAPGQGLEWMGYIAPFQGDARYNQKFKGRVTITADKSTSTAYMELSSLRSEDTAVYYCARLNRGNSLDYWGQGTLVTVSS VL: DIVMTQSPDSLAVSLGERATINCKSSQSLFNSGNQRNYLTWYQQKPGQPPKLLIYWASTRESGVPDRFSGSGSGTDFTLTISSLQAEDVAVYYCQNNYIYPLTFGGGTKVEIKR	471000
Hz69H9 PG Ab (P329G mutated Hz69H9 antibody, human IgG1) (antibody, V domains shown, also called H9 PG antibody; P329G H9 antibody) VH: QVQLVQSGAEVKKPGSSVKVSCKASGYSFSSYNIHWVRQAPGQGLEWMGYIAPFQGDSRYNQKFKGRVTITADKSTSTAYMELSSLRSEDTAVYYCARLNRGNSLDYWGQGTLVTVSS VL: DIVMTQSPDSLAVSLGERATINCKSSQSLFNSGNQRNYLTWYQQKPGQPPKLLIYWASTRESGVPDRFSGSGSGTDFTLTISSLQAEDVAVYYCQNNYIYPLTFGGGTKVEIKR	1.9e+06

Would you kindly look at the next entry?
Consider the binder Hz69H9-1.2 PG Ab (antibody, human IgG1, kappa, V domains shown, Mutant of the parent Hz69H9 with point mutations in VH or VL; also called H9-1.2 PG antibody) VH: QVQLVQSGAEVKKPGSSVKVSCKASGYSFSSYNIHWVRQAPGQGLEWMGYIAPFQGDARYNQKFKGRVTITADKSTSTAYMELSSLRSEDTAVYYCARLNRGQSLDYWGQGTLVTVSS VL: DIVMTQSPDSLAVSLGERATINCKSSQSLFNAGNQRNYLTWYQQKPGQPPKLLIYWASTRESGVPDRFSGSGSGTDFTLTISSLQAEDVAVYYCQNNYIYPLTFGGGTKVEIKR and give its measured kon.
1.89e+06
